pEC50: recorded values
- Test system: TNFα
- method-summary: IRAK4 Monocyte TNFα Cell Based Assay
- Set-up: species or system human
- particulars: human monocytes; second part of Table 2 (compounds 33-343); unit inferred; read-out: EC50MONO TNF HTRF
Notebook: values listed as pEC50 are -log10 of the concentration (mol/L).

[
  {
    "compound": "CC(C)Nc1cc(-c2ccc3cc(C#N)cnn23)ncc1-c1nnc(C23CCC(O)(CC2)CC3)s1 [Example 89]",
    "pEC50": 7.95
  },
  {
    "compound": "C[C@H](C#N)Nc1cc(-c2ccc3cc(C#N)cnn23)ncc1-c1nnc(N2CC3CC(C2)O3)s1 [Example 178]",
    "pEC50": 8.31
  },
  {
    "compound": "CC(C)Nc1cc(-c2ccc3cc(C#N)cnn23)ncc1-c1nnc(N2CC[C@@](C)(O)[C@H](F)C2)s1 [Example 191]",
    "pEC50": 7.64
  },
  {
    "compound": "CC(=O)N[C@@H]1CCN(c2nnc(-c3cnc(-c4ccc5cc(C#N)cnn45)cc3NC3COC3)s2)CC1(F)F [Example 183]",
    "pEC50": 8.06
  },
  {
    "compound": "CC1(O)CCN(c2nnc(-c3cnc(-c4ccc5cc(C#N)cnn45)cc3NC3COC3)s2)CC1 [Example 187]",
    "pEC50": 7.97
  }
]

Form field pEC50, entry CC(C)Nc1cc(-c2ccc3cc(C#N)cnn23)ncc1-c1nnc(N2CC[C@@H](O)C(F)(F)C2)s1 [Example 162] : 7.58

Form field pEC50, entry C[C@H](C#N)Nc1cc(-c2ccc3cc(C#N)cnn23)ncc1-c1nnc(N2C[C@H]3CC[C@@H](C2)[C@@H]3NC(=O)C2CC2)s1 [Example 148] : 8.85

Form field pEC50, entry C[C@]1(O)CCN(c2nnc(-c3cnc(-c4ccc5cc(C#N)cnn45)cc3NC3CCOCC3)s2)C[C@@H]1F [Example 204] : 8.46

Form field pEC50, entry CC1(O)CCN(c2nnc(-c3cnc(-c4ccc5cc(C#N)cnn45)cc3NC3CCOCC3)s2)CC1 [Example 188] : 8.12

Form field pEC50, entry CC(C)Nc1cc(-c2ccc3cc(C#N)cnn23)ncc1-c1nnc(C(=O)N2CC[C@H](CO)C2)s1 [Example 221] : 5.63

Form field pEC50, entry CC(C)Nc1cc(-c2ccc3cc(C#N)cnn23)ncc1-c1nnc(CCN)s1 [Example 212] : 6.52

###

- experimental-target: IRAK4 enzyme (Homo sapiens (Human), UniProt Q9NWZ3)
- Sequence (Q9NWZ3 whole entry): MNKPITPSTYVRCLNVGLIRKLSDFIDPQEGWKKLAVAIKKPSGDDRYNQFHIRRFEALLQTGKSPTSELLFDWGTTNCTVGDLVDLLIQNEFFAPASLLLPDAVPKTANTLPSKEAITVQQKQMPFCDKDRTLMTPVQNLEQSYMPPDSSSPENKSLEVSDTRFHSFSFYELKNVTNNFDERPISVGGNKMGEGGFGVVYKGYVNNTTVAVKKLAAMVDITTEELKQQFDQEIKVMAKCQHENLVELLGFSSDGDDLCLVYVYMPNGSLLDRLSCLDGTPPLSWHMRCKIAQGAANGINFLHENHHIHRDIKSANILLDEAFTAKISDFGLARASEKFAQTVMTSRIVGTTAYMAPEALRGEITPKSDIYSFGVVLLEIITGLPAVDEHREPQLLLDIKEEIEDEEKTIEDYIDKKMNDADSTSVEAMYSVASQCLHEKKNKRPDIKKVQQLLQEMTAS
- method-summary: IRAK4 Biochemical Assay (TR-FRET, STK1 KinEASE)
- particulars: compounds 1-32; read-out: IC50 HTRF
- Protocol: IRAK4 enzyme (Carna Biosciences, Chuo-ku, Kobe, Japan) activity was measured by detecting phosphorylated peptide substrate formation using an antibody against the phosphorylated peptide substrate. This is a time-resolved fluorescence resonance energy transfer (TR-FRET) immunoassay, based on the STK1 KinEASE Assay (Cisbio, Bedford, Mass.). […] Fluorescence intensities at 615 nm and 665 nm emission wavelengths were expressed as a ratio (665 nm/615 nm). […]
measured-property: IC50

Form field IC50, entry CC(C)Nc1cc(-c2ccc3cc(C#N)cnn23)ncc1-c1nnc(C2CCOCC2)s1 [Example 32] : < 1 nM

###

- experimental-target: IRAK4 enzyme (Homo sapiens (Human), UniProt Q9NWZ3)
- method-summary: IRAK4 Biochemical Assay (TR-FRET, STK1 KinEASE)
measured-property: IC50 (nM)
Respond with the bare value in nM.

Look over these answered cases.
[
  {
    "compound": "CC(=O)NC1CCC2(CC1)CN(c1nnc(-c3cnc(-c4ccc5cc(C#N)cnn45)cc3NC3COC3)s1)C2 [Example 78]",
    "IC50 [nM]": 0.85
  },
  {
    "compound": "CC(=O)N[C@@H]1CN(c2nnc(-c3cnc(-c4ccc5cc(C#N)cnn45)cc3NC(C)C)s2)CC12CC2 [Compound 324]",
    "IC50 [nM]": 0.99
  }
]

Form field IC50, entry CC(=O)N[C@@H]1C[C@H]2C[C@@H]1CN2c1nnc(-c2cnc(-c3ccc4cc(C#N)cnn34)cc2NC(C)C)s1 [Example 73] : 0.61

Form field IC50, entry CC(C)Nc1cc(-c2ccc3cc(C#N)cnn23)ncc1-c1nnc(C(=O)N2CC[C@@H](CO)C2)s1 [Example 216] : 0.78

Form field IC50, entry CC(=O)N[C@@H]1CCN(c2nnc(-c3cnc(-c4ccc5cc(C#N)cnn45)cc3NC(C)C)s2)C1 [Compound 330] : 1.8

Form field IC50, entry CC(=O)N1C2CC1CN(c1nnc(-c3cnc(-c4ccc5cc(C#N)cnn45)cc3NC(C)C)s1)C2 [Compound 258] : 1.26

Form field IC50, entry CC(=O)N1C2CCC1CN(c1nnc(-c3cnc(-c4ccc5cc(C#N)cnn45)cc3NC3(C)COC3)s1)C2 [Compound 264] : 0.59

Form field IC50, entry CC(=O)NC[C@H]1CCCN1C(=O)c1nnc(-c2cnc(-c3ccc4cc(C#N)cnn34)cc2NC(C)C)s1 [Example 42] : 1.5

Form field IC50, entry CC(=O)NC1CCC2(CC1)CN(c1nnc(-c3cnc(-c4ccc5cc(C#N)cnn45)cc3NC3(C)COC3)s1)C2 [Example 99] : 0.63

Form field IC50, entry CC(C)Nc1cc(-c2ccc3cc(C#N)cnn23)ncc1-c1nnc(N2CC3(CCNC3=O)C2)s1 [Example 164] : 0.55

###

- experimental-target: IRAK4 enzyme (Homo sapiens (Human))
- method-summary: IRAK4 Biochemical Assay (TR-FRET, STK1 KinEASE)
measured-property: pIC50
Notebook: values listed as pIC50 are -log10 of the concentration (mol/L).

Look over these answered cases.
[
  {
    "compound": "CC(=O)NC12CCC(c3nnc(-c4cnc(-c5ccc6cc(C#N)cnn56)cc4NC4COC4)s3)(C1)C2",
    "pIC50": 8.62
  },
  {
    "compound": "CC(=O)N1C[C@@H]2C[C@H]1CN2c1nnc(-c2cnc(-c3ccc4cc(C#N)cnn34)cc2NC(C)C)s1",
    "pIC50": 9.23
  },
  {
    "compound": "CC(=O)NC1CC2CC1CC2c1nnc(-c2cnc(-c3ccc4cc(C#N)cnn34)cc2NC(C)C)s1 (stereo not shown)",
    "pIC50": 9.11
  }
]

Next up:
Form field pIC50, entry `CC(=O)N[C@H]1CN(c2nnc(-c3cnc(-c4ccc5cc(C#N)cnn45)cc3NC(C)C)s2)CC12CC2` : 9.21

###

- experimental-target: IRAK4 enzyme (Homo sapiens (Human))
- method-summary: IRAK4 Biochemical Assay (TR-FRET, STK1 KinEASE)
pIC50: −log10 of the molar value.
Returns one of true (1) or false (0); true (1) when pIC50 is >= 9.

[
  {
    "chemical-smiles": "CC(C)Nc1cc(-c2ccc3cc(C#N)cnn23)ncc1-c1nnc(-n2cnc(C3CC3)c2)s1",
    "category-label": "false (0)"
  }
]

Consider now this further molecule.
Prompt: Hi team, for `C[C@H](C#N)Nc1cc(-c2ccc3cc(C#N)cnn23)ncc1-c1nnc(N2CCC(C)(O)CC2)s1` , is the recorded pIC50 at or above 9?
Completion: true (1)

###

- experimental-target: IRAK4 enzyme (Homo sapiens (Human), UniProt Q9NWZ3)
- method-summary: IRAK4 Biochemical Assay (TR-FRET, STK1 KinEASE)
Kindly apply the following: 1 (yes) if IC50 is less than 0.4 nM, 0 (no) in every other case.

Previously resolved entries follow.
[
  {
    "compound": "CC(C)Nc1cc(-c2ccc3cc(C#N)cnn23)ncc1-c1nnc(C(=O)N2CC[C@@H](NC(=O)C3CC3)C2)s1 [Example 47]",
    "category-label": "0 (no)"
  },
  {
    "compound": "CC(C)Nc1cc(-c2ccc3cc(C#N)cnn23)ncc1-c1nnc(C2CCOC2)s1 (stereo not drawn) [Compound 322]",
    "category-label": "1 (yes)"
  },
  {
    "compound": "CC(=O)N[C@H]1CCN(c2nnc(-c3cnc(-c4ccc5cc(C#N)cnn45)cc3NC(C)C)s2)C[C@@H]1O [Example 64]",
    "category-label": "1 (yes)"
  }
]

Prompt: Input CC(C)Nc1cc(-c2ccc3cc(C#N)cnn23)ncc1-c1nnc(N2CCN(C3COC3)CC2)s1 [Example 304] ; condition: IC50 strictly below 0.4 nM. Does it hold?
Completion: 0 (no)

Prompt: Input CC(=O)N1CCC2(CC1)CN(c1nnc(-c3cnc(-c4ccc5cc(C#N)cnn45)cc3NC3CCOCC3)s1)C2 [Example 76] ; condition: IC50 strictly below 0.4 nM. Does it hold?
Completion: 0 (no)

Prompt: Input CC(=O)NC1CN(c2nnc(-c3cnc(-c4ccc5cc(C#N)cnn45)cc3NC(C)C)s2)CC1(F)F (stereo not drawn) [Compound 327] ; condition: IC50 strictly below 0.4 nM. Does it hold?
Completion: 1 (yes)

Cited source for all entries: patent US11702414B2
